Below: a set of entries, each annotated with reported IC50.
- tested.system: Phospholipase A2 (Homo sapiens, UniProt P04054);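 note: confirmatory dose-response counterscreen on phospholipase A2, testing hits that came from an ultra-high-throughput screen for ATG4B inhibitors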
- Sequence (P04054 whole entry): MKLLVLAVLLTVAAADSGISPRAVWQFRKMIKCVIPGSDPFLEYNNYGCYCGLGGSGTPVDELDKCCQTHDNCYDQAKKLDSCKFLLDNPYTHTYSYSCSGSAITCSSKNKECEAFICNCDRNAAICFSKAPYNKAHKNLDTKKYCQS
- Assay type: functional
Activity calls are given as the source filed them.

Here's what some known entries look like.
Cc1cccc(NC(S)=NNC(=O)c2csc3c2CCCC3)c1; 13.2 µM (active)
CC(C)(C)c1ccc(C(=O)C2CCCN(C(=O)c3ccccn3)C2)cc1 (stereo not drawn); 11.5 µM (active)
O=C(c1ccc(-n2c(SCc3cccc(F)c3)nc3ccccc3c2=O)cc1)N1CCOCC1; 8.49 µM (active)
COc1cc2c(cc1NC(=O)C(C)Sc1ccc(NC(C)=O)cc1)oc1ccccc12 (stereo not drawn); 10 µM (active)
COc1ccc2c(c1OC)C(=O)OC2Nc1nc(-c2ccc(-c3ccccc3)cc2)cs1 (stereo not drawn); 17.1 µM (active)

Lookup: For the compound "COC(=O)N/N=C/c1cn(CCCOc2ccc(C)cc2)c2ccccc12" , give its measured IC50 value.
Found: 7.39 µM (active)

Lookup: For the compound "O=C(O)c1cc(Br)ccc1NN=C1CCCCC1" , give its measured IC50 value.
Found: 9.4 µM (active)

Lookup: For the compound Cc1ccc(-c2[nH]nc3c2C(c2ccc(OC(=O)N4CCOCC4)cc2)C(C#N)=C(N)O3)cc1 (stereo not drawn) , give its measured IC50 value.
Found: 11.7 µM (active)
